Documented binding signal across a set of binders
- SYSTEM_NAME: T1, RBFOX1 RRM (Homo sapiens, UniProt Q9NWB1 109-208)
- T1 sequence: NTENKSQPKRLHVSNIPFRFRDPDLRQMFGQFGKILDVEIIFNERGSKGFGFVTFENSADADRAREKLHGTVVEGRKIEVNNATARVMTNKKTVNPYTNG
- ASSAY_COMMENT: EMSA; HiTS-Eq, 1 nM pool, 10 min; buffer printed only for the single-RNA assays: 10 mM Tris pH 7.5, 150 mM NaCl, 3.4 mM EDTA, 0.001% NP-40, 30 C
- STATED_CONDITIONS: tags: His6 N-terminal (pET28a); label: 5' 32P
Over roughly 16,000 sequences, “ka relative to ugcaugu” has its median near 0.0091; the highest 2% begin near 0.032. Shown is part of a subset that was picked to be rich in the highest values.

# count of solved cases: 10
UUGAGUC (DNA:RNA) RNA: GGGAGACCGGAAUUCAGAUUGUCCUUGAGUCUUAAAUCCCGUCGUAGCCACCA DNA 1: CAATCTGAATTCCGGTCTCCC DNA 2: TGGTGGCTACGACGGGATT | 0.0173 KA relative to UGCAUGU
GUCCGGG (DNA:RNA) RNA: GGGAGACCGGAAUUCAGAUUGUCCGUCCGGGUUAAAUCCCGUCGUAGCCACCA DNA 1: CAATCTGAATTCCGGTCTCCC DNA 2: TGGTGGCTACGACGGGATT | 0.00708 KA relative to UGCAUGU
GACAGCA (DNA:RNA) RNA: GGGAGACCGGAAUUCAGAUUGUCCGACAGCAUUAAAUCCCGUCGUAGCCACCA DNA 1: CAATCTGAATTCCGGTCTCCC DNA 2: TGGTGGCTACGACGGGATT | 0.0143 KA relative to UGCAUGU
ACCGGGU (DNA:RNA) RNA: GGGAGACCGGAAUUCAGAUUGUCCACCGGGUUUAAAUCCCGUCGUAGCCACCA DNA 1: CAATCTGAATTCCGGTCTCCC DNA 2: TGGTGGCTACGACGGGATT | 0.013 KA relative to UGCAUGU
GGGGAGU (DNA:RNA) RNA: GGGAGACCGGAAUUCAGAUUGUCCGGGGAGUUUAAAUCCCGUCGUAGCCACCA DNA 1: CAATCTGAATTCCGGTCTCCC DNA 2: TGGTGGCTACGACGGGATT | 0.0316 KA relative to UGCAUGU
UUUCUGA (DNA:RNA) RNA: GGGAGACCGGAAUUCAGAUUGUCCUUUCUGAUUAAAUCCCGUCGUAGCCACCA DNA 1: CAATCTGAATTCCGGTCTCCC DNA 2: TGGTGGCTACGACGGGATT | 0.0328 KA relative to UGCAUGU
GGGUUUG (DNA:RNA) RNA: GGGAGACCGGAAUUCAGAUUGUCCGGGUUUGUUAAAUCCCGUCGUAGCCACCA DNA 1: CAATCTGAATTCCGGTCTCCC DNA 2: TGGTGGCTACGACGGGATT | 0.0349 KA relative to UGCAUGU
GGGUUUU (DNA:RNA) RNA: GGGAGACCGGAAUUCAGAUUGUCCGGGUUUUUUAAAUCCCGUCGUAGCCACCA DNA 1: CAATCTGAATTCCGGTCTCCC DNA 2: TGGTGGCTACGACGGGATT | 0.0323 KA relative to UGCAUGU
UUGAGAG (DNA:RNA) RNA: GGGAGACCGGAAUUCAGAUUGUCCUUGAGAGUUAAAUCCCGUCGUAGCCACCA DNA 1: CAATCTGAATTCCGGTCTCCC DNA 2: TGGTGGCTACGACGGGATT | 0.0165 KA relative to UGCAUGU
UUGAGUG (DNA:RNA) RNA: GGGAGACCGGAAUUCAGAUUGUCCUUGAGUGUUAAAUCCCGUCGUAGCCACCA DNA 1: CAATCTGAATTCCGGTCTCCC DNA 2: TGGTGGCTACGACGGGATT | 0.0333 KA relative to UGCAUGU

Please give the measured binding signal for this binder: GGAGUUU (DNA:RNA) RNA: GGGAGACCGGAAUUCAGAUUGUCCGGAGUUUUUAAAUCCCGUCGUAGCCACCA DNA 1: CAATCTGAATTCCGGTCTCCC DNA 2: TGGTGGCTACGACGGGATT 0.0247 KA relative to UGCAUGU

Note, next up: UCCUUGA (DNA:RNA) RNA: GGGAGACCGGAAUUCAGAUUGUCCUCCUUGAUUAAAUCCCGUCGUAGCCACCA DNA 1: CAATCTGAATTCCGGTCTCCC DNA 2: TGGTGGCTACGACGGGATT 0.0113 KA relative to UGCAUGU

Ref: paper PMC9911399
